target: dopamine D-2 receptor (Rattus norvegicus, UniProt P61169)
Sequence (P61169 whole entry): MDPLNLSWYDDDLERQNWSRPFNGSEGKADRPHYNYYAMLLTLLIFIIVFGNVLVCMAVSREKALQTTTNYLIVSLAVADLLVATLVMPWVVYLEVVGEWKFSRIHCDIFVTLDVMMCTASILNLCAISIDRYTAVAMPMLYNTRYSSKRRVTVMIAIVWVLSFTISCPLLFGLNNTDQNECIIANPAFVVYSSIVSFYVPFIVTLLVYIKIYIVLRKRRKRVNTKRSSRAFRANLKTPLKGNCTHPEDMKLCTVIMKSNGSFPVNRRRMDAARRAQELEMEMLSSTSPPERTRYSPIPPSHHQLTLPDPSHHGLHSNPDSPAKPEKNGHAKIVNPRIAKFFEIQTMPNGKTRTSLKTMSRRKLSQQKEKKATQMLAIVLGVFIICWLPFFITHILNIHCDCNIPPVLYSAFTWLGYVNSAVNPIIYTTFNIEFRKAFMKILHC
assay: biochemical
Assay type: binding
testSettings: rat caudate, [125I]-p-aminophenylethyl spiroperidol; read-out: D-2 Ki
outcomeMeasure: Ki (µM)

Asked: Please tell me the measured Ki for CCC(C)C(C)[C@@H]1Cc2c(ccc(O)c2O)[C@H](CN)O1 (stereo partly shown) [Example 72] ; system: dopamine D-2 receptor (Rattus norvegicus, UniProt P61169).
Given back: 8.2

Asked: Please tell me the measured Ki for CC(C)C(=O)NC[C@H]1Cc2c(ccc(O)c2O)[C@@H](CN)O1 (relative stereo) [Example 171] ; system: dopamine D-2 receptor (Rattus norvegicus, UniProt P61169).
Given back: 0.81

Asked: Please tell me the measured Ki for CC1([C@@H]2Cc3c(ccc(O)c3O)[C@H](CN)O2)CCCCC1 (relative stereo) [Example 222] ; system: dopamine D-2 receptor (Rattus norvegicus, UniProt P61169).
Given back: 3.2

1: Oc1ccc2c(c1O)C[C@H](C1CCCCC1)O[C@@H]2CN1CCCC1 (relative stereo) [Example 115]
2: NC[C@@H]1O[C@H](CCOCc2ccccc2)Cc2c1ccc(O)c2O (relative stereo) [Example 77]
Asked: Between 1 and 2 , whose recorded Ki is greater? Identify your pick by its label.
Given back: 1

* * *

target: dopamine D-1 receptor (Rattus norvegicus, UniProt P18901)
Sequence (P18901 whole entry): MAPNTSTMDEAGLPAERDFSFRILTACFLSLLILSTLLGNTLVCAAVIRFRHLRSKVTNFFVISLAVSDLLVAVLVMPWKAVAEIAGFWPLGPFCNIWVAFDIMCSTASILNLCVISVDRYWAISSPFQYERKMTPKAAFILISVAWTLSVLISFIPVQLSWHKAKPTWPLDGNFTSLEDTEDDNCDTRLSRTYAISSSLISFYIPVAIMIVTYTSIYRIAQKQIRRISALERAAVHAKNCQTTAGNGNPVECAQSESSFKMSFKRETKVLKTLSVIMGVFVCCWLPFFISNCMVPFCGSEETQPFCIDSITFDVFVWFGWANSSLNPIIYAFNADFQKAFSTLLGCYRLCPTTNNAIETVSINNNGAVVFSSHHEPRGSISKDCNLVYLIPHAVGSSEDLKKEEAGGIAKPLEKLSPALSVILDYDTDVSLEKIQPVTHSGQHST
assay: biochemical
testSettings: D-1 Ki, rat caudate, [125I]SCH-23982
pKi: −log10 of the molar value.
outcomeMeasure: pKi

Reference set, count: 3
Asked: Identify measured pKi associated with NC[C@@H]1O[C@H](C2(c3ccccc3)CCCCC2)Cc2c1ccc(O)c2O (relative stereo)
Given back: 7.40

Asked: Identify measured pKi associated with NCC1=CC(C23CC4CC(CC(C4)C2)C3)Cc2c1ccc(O)c2O (centres unmarked)
Given back: 6.52

Asked: Identify measured pKi associated with CCCC(=O)NC[C@@H]1Cc2c(ccc(O)c2O)[C@H](CN)O1 (relative stereo)
Given back: 5.10

P: CNC[C@H]1O[C@@H](Cc2ccc(OC)cc2)Cc2c1ccc(O)c2O (relative stereo)
Q: NC[C@@H]1O[C@H](COCc2ccccc2)Cc2c1ccc(O)c2O (relative stereo)
Asked: Hi! Which is lower in terms of pKi, the first one P or the second one Q ? Identify your pick by its label.
Given back: P
(P: 5.54, Q: 6.32)

* * *

Tested on: dopamine D-1 receptor
testSettings: dopamine = 100; goldfish retina or rat striatum
outcomeMeasure: Intrinsic Activity (adenylate cyclase assay)

Reference set, count: 8
Asked: Identify measured Intrinsic Activity (adenylate cyclase assay) associated with CC(C)(C)C1C=C(CN)c2ccc(O)c(O)c2C1 (stereo not drawn)
Given back: 92

Asked: Identify measured Intrinsic Activity (adenylate cyclase assay) associated with CN1CCC2=C(C1)c1ccc(O)c(O)c1CC2c1ccccc1 (stereo not drawn) [Example 247]
Given back: 75

Asked: Identify measured Intrinsic Activity (adenylate cyclase assay) associated with CN1CCC2=C(C1)c1ccc(O)c(O)c1CC21CCCCCC1
Given back: 32

Asked: Identify measured Intrinsic Activity (adenylate cyclase assay) associated with NC[C@@H]1O[C@H](CC2CCCC2)Cc2c1ccc(O)c2O (relative stereo)
Given back: 147

Asked: Identify measured Intrinsic Activity (adenylate cyclase assay) associated with Oc1ccc2c(c1O)CC1(CCCCCC1)C1=C2CNCC1
Given back: 79

Asked: Identify measured Intrinsic Activity (adenylate cyclase assay) associated with NC[C@H]1O[C@@H](CN2CCOCC2)Cc2c1ccc(O)c2O (relative stereo)
Given back: 111

Asked: Identify measured Intrinsic Activity (adenylate cyclase assay) associated with CN1CCC2=C(C1)c1ccc(O)c(O)c1CC2c1ccccc1 (stereo not drawn) [Example 246]
Given back: 78

Asked: Identify measured Intrinsic Activity (adenylate cyclase assay) associated with NC[C@@H]1O[C@H](CC23CC4CC(CC(C4)C2)C3)Cc2c1ccc(O)c2O (relative stereo)
Given back: 128

a: NC[C@H]1O[C@@H](CN2CCCCC2)Cc2c1ccc(O)c2O (relative stereo)
b: CN(C)C[C@@H]1O[C@H](C2(C)CCCCC2)Cc2c1ccc(O)c2O (relative stereo)
Asked: Hi! Which is lower in terms of Intrinsic Activity (adenylate cyclase assay), the first one a or the second one b ? Identify your pick by its label.
Given back: b
(b: 59, a: 100)

I: Oc1ccc2c(c1O)CC1(CCCC1)C1=C2CNCC1
II: CNCC1OC2(CCCCCCC2)Cc2c1ccc(O)c2O (stereo not drawn)
III: NC[C@H]1O[C@@H](COc2ccccc2-c2ccccc2)Cc2c1ccc(O)c2O (relative stereo)
Asked: hey, can you rank those molecules up there by Intrinsic Activity (adenylate cyclase assay)? biggest number first please Quick reminder: the answer is the labels in the order asked.
Given back: I, II, III

1: NCC1=CC(c2ccc(O)cc2)Cc2c1ccc(O)c2O (stereo not drawn)
2: CC(=O)NC[C@H]1Cc2c(ccc(O)c2O)[C@@H](CN)O1 (relative stereo)
Asked: Hi! Which is lower in terms of Intrinsic Activity (adenylate cyclase assay), the first one 1 or the second one 2 ? Identify your pick by its label.
Given back: 2
